Listed here are molecules together with their documented GLUC (glucose), percent of control.
Test: Clinical chemistries in serum of rats
Type: in vivo, male Sprague-Dawley rats
Conditions: rat serum, diet 0.3%, 4 days
MEASURED_ATTRIBUTE: GLUC (glucose), percent of control (%)

{"columns": ["RECORD_SMILES", "UNIT_TAG", "RESULT_VALUE"],
 "data": [
  ["CC(C)(C)c1cc(OC[Si](C)(C)c2ccccc2)cc(C(C)(C)C)c1OC(=O)CCC(=O)O", "%", 99],
  ["CC(C)(C)c1cc(OC[Si](C)(C)c2ccccc2)ccc1O", "%", 94],
  ["CC(=O)Oc1c(C)cc(OC[Si](C)(C)c2ccccc2)c(C)c1C", "%", 100],
  ["CC(C)(C)c1cc(OC[Si](C)(C)c2ccccc2)c(C(C)(C)C)cc1O", "%", 91],
  ["CC(C)(C)c1cc(SC[Si](C)(C)c2ccccc2)ccc1O", "%", 96],
  ["CC(=O)Oc1ccc(OC[Si](C)(C)c2ccccc2)cc1C(C)(C)C", "%", 98],
  ["CC(=O)Oc1cc(C(C)(C)C)c(OC[Si](C)(C)c2ccccc2)cc1C(C)(C)C", "%", 109],
  ["CC(C)(C)c1cc(OC[Si](C)(c2ccccc2)c2ccccc2)cc(C(C)(C)C)c1O", "%", 111],
  ["Cc1cc(OC[Si](C)(C)c2ccccc2)c(C)c(C)c1O", "%", 115]
]}

====

Assay: Animal parameters (food, body weight, liver weight, mortality) in rats
Type: in vivo, male Sprague-Dawley rats
Details: rat, diet 0.3%, 4 days
Listed here are molecules together with their documented body wt., percent of control.
MEASURED_ATTRIBUTE: body wt., percent of control (%)

{"columns": ["RECORD_SMILES", "RESULT_VALUE"],
 "data": [
  ["CC(C)(C)c1cc(OC[Si](C)(C)c2ccccc2)ccc1OC(=O)CCC(=O)O", 101],
  ["CC(=O)Oc1c(C(C)(C)C)cc(OC[Si](C)(C)c2ccccc2)cc1C(C)(C)C", 97],
  ["CN(C)c1ccc([Si](C)(C)COc2cc(C(C)(C)C)c(O)c(C(C)(C)C)c2)cc1", 87],
  ["CC(C)(C)c1cc(OC[Si](C)(C)c2cccc(C(F)(F)F)c2)cc(C(C)(C)C)c1O", 105],
  ["Cc1cc(OC[Si](C)(C)c2ccccc2)c(C)c(C)c1O", 111],
  ["CC(C)(C)c1cc(SC[Si](C)(C)c2ccccc2)cc(C(C)(C)C)c1OC(=O)CCC(=O)O", 91],
  ["CC(C)(C)c1cc(SC[Si](C)(C)c2ccccc2)ccc1O", 97],
  ["CC(=O)Oc1cc(C(C)(C)C)c(OC[Si](C)(C)c2ccccc2)cc1C(C)(C)C", 95]
]}

====

Listed here are compounds together with their documented food (grams eaten per day per rat), percent of control.
Experiment: Animal parameters (food, body weight, liver weight, mortality) in rats
Assay type: in vivo, male Sprague-Dawley rats
Settings: diet 0.1%, 4 days
MEASURED_ATTRIBUTE: food (grams eaten per day per rat), percent of control (%)

{"columns": ["RECORD_SMILES", "UNIT_TAG", "RESULT_VALUE"],
 "data": [
  ["CC(C)(C)c1cc(OC[Si](C)(C)c2ccccc2)ccc1O", "%", 92],
  ["CN(C)c1ccc([Si](C)(C)COc2cc(C(C)(C)C)c(O)c(C(C)(C)C)c2)cc1", "%", 102],
  ["CC(=O)Oc1ccc(OC[Si](C)(C)c2ccccc2)cc1C(C)(C)C", "%", 100],
  ["CC(C)(C)c1cc(OC[Si](C)(C)c2ccc(C(F)(F)F)cc2)cc(C(C)(C)C)c1O", "%", 106]
]}

====

Assay: Clinical chemistries in serum of rats
Assay type: in vivo, male Sprague-Dawley rats
Details: rat serum, diet 0.3%, 4 days
MEASURED_ATTRIBUTE: ALP (alkaline phosphatase), percent of control (%)

{"columns": ["RECORD_SMILES", "UNIT_TAG", "RESULT_VALUE"],
 "data": [
  ["CC(C)(C)c1cc(OC[Si](C)(c2ccccc2)c2ccccc2)cc(C(C)(C)C)c1O", "%", 110],
  ["CC(C)(C)c1cc(OC[Si](C)(C)c2cccc(C(F)(F)F)c2)cc(C(C)(C)C)c1O", "%", 118],
  ["CC(=O)Oc1cc(C(C)(C)C)c(OC[Si](C)(C)c2ccccc2)cc1C(C)(C)C", "%", 118],
  ["CN(C)c1ccc([Si](C)(C)COc2cc(C(C)(C)C)c(O)c(C(C)(C)C)c2)cc1", "%", 112],
  ["CC(C)(C)c1cc(OC[Si](C)(C)c2ccccc2)cc(C(C)(C)C)c1OC(=O)CCC(=O)O", "%", 201],
  ["CC(C)(C)c1cc(SC[Si](C)(C)c2ccccc2)ccc1O", "%", 103],
  ["CC(C)(C)c1cc(OC[Si](C)(C)c2ccccc2)ccc1OC(=O)CCC(=O)O", "%", 91],
  ["CC(=O)Oc1c(C)cc(OC[Si](C)(C)c2ccccc2)c(C)c1C", "%", 144]
]}

====

Test: Clinical chemistries in serum of rats
Type: in vivo, male Sprague-Dawley rats
Conditions: rat serum, diet 0.3%, 4 days
Listed here are compounds together with their documented GLUC (glucose), percent of control.
MEASURED_ATTRIBUTE: GLUC (glucose), percent of control (%)

{"columns": ["RECORD_SMILES", "MEASURED_ATTRIBUTE", "UNIT_TAG", "RESULT_VALUE"],
 "data": [
  ["CC(=O)Oc1c(C(C)(C)C)cc(OC[Si](C)(C)c2ccccc2)cc1C(C)(C)C", "GLUC (glucose), percent of control", "%", 102],
  ["CC(C)(C)c1cc(SC[Si](C)(C)c2ccccc2)cc(C(C)(C)C)c1OC(=O)CCC(=O)O", "GLUC (glucose), percent of control", "%", 107],
  ["CC(C)(C)c1cc(OC[Si](C)(C)c2cccc(C(F)(F)F)c2)cc(C(C)(C)C)c1O", "GLUC (glucose), percent of control", "%", 105],
  ["COc1ccc([Si](C)(C)COc2ccc(O)c(C(C)(C)C)c2)cc1", "GLUC (glucose), percent of control", "%", 95],
  ["CC(C)(C)c1cc(OC[Si](C)(C)c2ccc(C(F)(F)F)cc2)cc(C(C)(C)C)c1O", "GLUC (glucose), percent of control", "%", 106],
  ["CC(C)(C)c1cc(OC[Si](C)(C)c2ccccc2)ccc1OC(=O)CCC(=O)O", "GLUC (glucose), percent of control", "%", 88],
  ["CN(C)c1ccc([Si](C)(C)COc2cc(C(C)(C)C)c(O)c(C(C)(C)C)c2)cc1", "GLUC (glucose), percent of control", "%", 113]
]}

====

Assay: Clinical chemistries in serum of rats
Assay type: in vivo, male Sprague-Dawley rats
Settings: rat serum, diet 0.3%, 4 days
MEASURED_ATTRIBUTE: AST (aspartate aminotransferase), percent of control (%)

{"columns": ["RECORD_SMILES", "RESULT_VALUE"],
 "data": [
  ["CC(C)(C)c1cc(OC[Si](C)(C)c2ccccc2)ccc1OC(=O)CCC(=O)O", 102],
  ["CC(C)(C)c1cc(OC[Si](C)(C)c2ccccc2)c(C(C)(C)C)cc1O", 109],
  ["CC(C)(C)c1cc(OC[Si](C)(C)c2ccccc2)cc(C(C)(C)C)c1OC(=O)CCC(=O)O", 99],
  ["CC(C)(C)c1cc(OC[Si](C)(c2ccccc2)c2ccccc2)cc(C(C)(C)C)c1O", 76],
  ["CC(=O)Oc1ccc(OC[Si](C)(C)c2ccccc2)cc1C(C)(C)C", 171],
  ["CC(C)(C)c1cc(OC[Si](C)(C)c2ccc(C(F)(F)F)cc2)cc(C(C)(C)C)c1O", 122],
  ["CC(C)(C)c1cc(SC[Si](C)(C)c2ccccc2)ccc1O", 103],
  ["CC(C)(C)c1cc(OC[Si](C)(C)c2cccc(C(F)(F)F)c2)cc(C(C)(C)C)c1O", 112],
  ["CC(=O)Oc1cc(C(C)(C)C)c(OC[Si](C)(C)c2ccccc2)cc1C(C)(C)C", 84],
  ["CN(C)c1ccc([Si](C)(C)COc2cc(C(C)(C)C)c(O)c(C(C)(C)C)c2)cc1", 101],
  ["CC(C)(C)c1cc(SC[Si](C)(C)c2ccccc2)cc(C(C)(C)C)c1OC(=O)CCC(=O)O", 120],
  ["COc1ccc([Si](C)(C)COc2ccc(O)c(C(C)(C)C)c2)cc1", 122],
  ["Cc1cc(OC[Si](C)(C)c2ccccc2)c(C)c(C)c1O", 76],
  ["CC(=O)Oc1c(C)cc(OC[Si](C)(C)c2ccccc2)c(C)c1C", 92],
  ["CC(=O)Oc1c(C(C)(C)C)cc(OC[Si](C)(C)c2ccccc2)cc1C(C)(C)C", 149],
  ["CC(C)(C)c1cc(OC[Si](C)(C)c2ccccc2)ccc1O", 114]
]}
